Form field: IC50 (one value per entry).
- Test System: HparOBP20 (Holotrichia parallela)
- Assay Protocol: Fluorescence competitive binding assay with 1-NPN probe, recombinant HparOBP20
- Experimental Setup: displacement of 2 μM 1-NPN, 2 μM protein, Tris-HCl pH 7.4, 25°C; read-out: IC50, HparOBP20
Unit µM implied. Number only.

Worked examples, 4 molecules total:
{"columns": ["Molecule", "Test System", "IC50 / µM"],
 "data": [
  ["CCC/C=C/COC(C)=O [(E)-2-Hexenyl acetate]", "HparOBP20 (Holotrichia parallela)", 27.8],
  ["C=C(C)[C@H]1CC=C(C)CC1 [(R)-(+)-Limonene]", "HparOBP20 (Holotrichia parallela)", 28.7],
  ["CCCCCCCCCCCCCCC [Pentadecane]", "HparOBP20 (Holotrichia parallela)", 16.5],
  ["CCCCCCCCO [1-Octanol]", "HparOBP20 (Holotrichia parallela)", 30.2]
]}

Now look at this one.
q: Give reported IC50 value for CCCCCCCCCCCC [Dodecane]
a: 48.5

----------
Form field: pKi (one value per entry).
- Test System: HparOBP20 (Holotrichia parallela, UniProt A0A0G2YKL4)
- Sequence (A0A0G2YKL4 entry or part of it): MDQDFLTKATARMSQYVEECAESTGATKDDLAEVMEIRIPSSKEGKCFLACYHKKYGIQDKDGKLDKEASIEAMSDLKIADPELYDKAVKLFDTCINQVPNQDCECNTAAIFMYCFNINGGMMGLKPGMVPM
- Assay Protocol: Fluorescence competitive binding assay with 1-NPN probe, recombinant HparOBP20
- Experimental Setup: Ki, HparOBP20, calculated from IC50, Ki = [IC50]/(1+[1-NPN]/K1-NPN)
Just the number, please; pKi means minus log10 of the concentration in mol/L.

Worked examples, 3 molecules total:
{"columns": ["Molecule", "pKi"],
 "data": [
  ["COC(=O)c1ccccc1O [Methyl salicylate]", 4.62],
  ["CC1=CC[C@H](C(C)C)C=C1", 4.75],
  ["CCCCCC(=O)O", 4.40]
]}

q: Report pKi from HparOBP20 (Holotrichia parallela, UniProt A0A0G2YKL4) testing of CC1=CCC2CC1C2(C)C (stereo not drawn)
a: 4.65

q: Report pKi from HparOBP20 (Holotrichia parallela, UniProt A0A0G2YKL4) testing of CC/C=C/CCO [(E)-3-Hexen-1-ol]
a: 4.60

q: Report pKi from HparOBP20 (Holotrichia parallela, UniProt A0A0G2YKL4) testing of CC/C=C\CCO [(Z)-3-Hexen-1-ol]
a: 4.60

----------
- Test System: HparOBP20 (Holotrichia parallela, UniProt A0A0G2YKL4)
- Assay Protocol: Fluorescence competitive binding assay with 1-NPN probe, recombinant HparOBP20
Parameter: pIC50
Just the number, please; pIC50 means minus log10 of the concentration in mol/L.

Worked examples, 5 molecules total:
{"columns": ["Molecule", "Recorded Number"],
 "data": [
  ["CC/C=C\\CCO [(Z)-3-Hexen-1-ol]", 4.52],
  ["CC1=CCC2CC1C2(C)C (stereo not drawn) [α-Pinene]", 4.57],
  ["CC1=CC[C@H](C(C)C)C=C1 [α-Phellandrene]", 4.68],
  ["CC/C=C/CCO [(E)-3-Hexen-1-ol]", 4.52],
  ["COC(=O)c1ccccc1O [Methyl salicylate]", 4.55]
]}

Now look at this one.
q: Give reported pIC50 value for CCCCCC(=O)O [Hexanoic acid]
a: 4.33

----------
- Test System: HparOBP49 (Holotrichia parallela)
- Sequence (A0A0G2YD95 entry or part of it): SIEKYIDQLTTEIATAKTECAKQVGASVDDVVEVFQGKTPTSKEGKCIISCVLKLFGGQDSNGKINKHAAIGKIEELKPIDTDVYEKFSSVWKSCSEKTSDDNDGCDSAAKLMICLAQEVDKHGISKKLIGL
- Assay Protocol: Fluorescence competitive binding assay with 1-NPN probe, recombinant HparOBP49
- Experimental Setup: calculated from IC50, Ki = [IC50]/(1+[1-NPN]/K1-NPN); read-out: Ki, HparOBP49
Parameter: pKi
Just the number, please; pKi means minus log10 of the concentration in mol/L.

q: Give reported pKi value for CC/C=C\CCOC(C)=O [(Z)-3-Hexenyl acetate]
a: 4.40

----------
Form field: pIC50 (one value per entry).
- Test System: HparOBP20 (Holotrichia parallela, UniProt A0A0G2YKL4)
- Assay Protocol: Fluorescence competitive binding assay with 1-NPN probe, recombinant HparOBP20
- Experimental Setup: displacement of 2 μM 1-NPN, 2 μM protein, Tris-HCl pH 7.4, 25°C; read-out: IC50, HparOBP20
Just the number, please; pIC50 means minus log10 of the concentration in mol/L.

Worked examples, 2 compounds total:
{"columns": ["Compound", "Recorded Number"],
 "data": [
  ["CC/C=C\\CCOC(C)=O [(Z)-3-Hexenyl acetate]", 4.66],
  ["CCCCC=O", 4.51]
]}

Now look at this one.
q: Report pIC50 from HparOBP20 (Holotrichia parallela, UniProt A0A0G2YKL4) testing of `Cn1cccc1`
a: 4.58
